- Test system: U251 CNS
- Experiment: NCI tumour cell line growth inhibition, 48 h
Value Type: TGI

Some solved entries appear below for comparison.
Molecule | TGI
CC1(C)CC(C)(C)C1=NNC(N)=O | > 100 µM
CCOc1ccccc1N=Nc1c(C)[nH]n(-c2nc(-c3ccccc3)cs2)c1=O | > 100 µM
N#Cc1ccccc1-c1nc2c3c(c(N)ccc3n1)C(=O)c1ccccc1-2 | > 100 µM
O=C(c1cc(Cl)ccc1Cl)N1CCN(C(=O)c2cc(Cl)ccc2Cl)CC1 | > 100 µM
Nc1[nH]nc2nc(-c3cccs3)cc(C(F)(F)F)c12 | > 25 µM
CCN(C(=S)N[C@H](C(=O)N[C@@H](C)C(=O)OC)C(C)C)c1ccccc1 | > 100 µM

Requested field: TGI. Item: C/C(CC(=O)Nc1ccc(Cl)cc1)=N\NC(N)=S
> 100 µM

Requested field: TGI. Item: COc1ccc(C(=O)Cc2ccc(Br)cc2)cc1OC
> 100 µM

====

- Test system: SK-OV-3 ovarian
- Experiment: NCI tumour cell line growth inhibition, 48 h
Overview of recorded TGI for various compounds

Some solved entries appear below for comparison.
Compound | Tested Target | TGI
C/C=C(/COC(C)=O)C(=O)OC1C=C(C=O)C(C)(C)C=C1C (stereo not given) | SK-OV-3 ovarian | > 100 µM
CCNC(=O)c1cc(/C=C/c2ccc([N+](=O)[O-])o2)nc2ccccc12 | SK-OV-3 ovarian | > 100 µM
CC(C)(Oc1ccc(Cl)cc1)C(=O)N(C(=O)N1CCC(c2ccccc2)CC1)c1ccccc1 | SK-OV-3 ovarian | > 100 µM
COc1ccc(C(SC2C(O)C(CO)OC2n2ccc(N)nc2=O)(c2ccccc2)c2ccc(OC)cc2)cc1 (stereo not given) | SK-OV-3 ovarian | 56.1 µM

Fill in the recorded TGI for this compound, with SK-OV-3 ovarian as test system: O=C(Nc1ccc(Cl)cc1)Nc1ccc(Nc2nncc3ccccc23)cc1
17.7 µM

Fill in the recorded TGI for this compound, with SK-OV-3 ovarian as test system: COc1ccc(OC)c2c1C(=O)C1CC1(Br)C2=O (stereo not given)
> 100 µM

Fill in the recorded TGI for this compound, with SK-OV-3 ovarian as test system: O=C(O)c1nc(-c2ccccc2)[nH]c1C(=O)O
32.4 µM

Fill in the recorded TGI for this compound, with SK-OV-3 ovarian as test system: Cc1nc2c(sc(=S)n2-c2ccccc2)c(=O)[nH]1
> 100 µM

Fill in the recorded TGI for this compound, with SK-OV-3 ovarian as test system: COc1ccc(OC)c(NC(=O)CCC/C(CC(=O)c2ccc(O)c(OC)c2)=N\Nc2ccc([N+](=O)[O-])cc2)c1
> 100 µM

Fill in the recorded TGI for this compound, with SK-OV-3 ovarian as test system: COc1ccc(/C=C2\CCCC3=C2NC(N)=NC3c2ccc(OC)c(OC)c2)cc1OC (stereo not given)
> 100 µM

====

- Test system: K-562 leukemia
- Experiment: NCI tumour cell line growth inhibition, 48 h
Overview of recorded TGI for various compounds

Some solved entries appear below for comparison.
Compound | Value Type | Test Result
Nc1nc(Nc2ccc(C3CCC(N4CCOCC4)CC3)cc2)nn1-c1ccccn1 (stereo unspecified) | TGI | > 100 µM
COc1ccc(C(=O)c2cc3c(N)c(C(=O)Nc4cccc5ccccc45)sc3nc2C)cc1 | TGI | > 50 µM
COc1cc(/C=C2\Sc3scc(-c4cccc([N+](=O)[O-])c4)[n+]3C2=O)cc(OC)c1OC | TGI | > 100 µM
O=C(COc1ccc(/C=C2\Oc3ccccc3C2=O)cc1)Nc1nc2c(s1)CCCC2 | TGI | > 100 µM
O=C(O)c1nc(-c2ccccc2)[nH]c1C(=O)O | TGI | 15.3 µM

Attention now turns to another entry.
Fill in the recorded TGI for this compound, with K-562 leukemia as test system: CC1(c2ccc[n+](Cc3ccccc3)c2)OCCO1
> 100 µM
